assay: qHTS of pediatric cancer cell lines to identify multiple opportunities for drug repurposing: Confirmatory screen for SJ-GBM2 cells (AID 1347116); settings: SJ-GBM2 glioblastoma cells, viability; series mostly up to 45.9 µM;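 also: 48 hour compound exposure; nearly all actives have a fitted effect of over 60% in size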
Results filed as inconclusive are left out. The source made the active and inactive calls. Calls follow the shape of the dose curve; as a rule, active = well fitted cell-killing curve with a large enough effect; inconclusive = small, poorly fitted or top-dose-only effect, or effect the other way; inactive = no such curve, though single readings can be large or run the other way.
Respond using exactly one of the listed classes: active, inactive

A selection of reference data follows.
molecule: Cc1ccc(C(=O)Oc2ccc(C(O)CNC(C)(C)C)cc2OC(=O)c2ccc(C)cc2)cc1 (stereo unspecified)
class_label: inactive
--
molecule: CCC1=C[C@@H]2CN(C1)Cc1c([nH]c3ccccc13)[C@@](C(=O)OC)(c1cc3c(cc1OC)N(C)[C@H]1[C@@](O)(C(=O)OC)[C@H](OC(C)=O)[C@]4(CC)C=CCN5CC[C@]31[C@@H]54)C2
class_label: active
--
molecule: CCc1cc2cc(OC)c(OC)cc2c(Cc2ccccc2)n1
class_label: inactive
--
molecule: Nc1ccc2cc3ccc(N)cc3nc2c1
class_label: active
--
molecule: CN(C)CCN(Cc1ccsc1)c1ccccn1
class_label: inactive

Next up:
input: # fetch the recorded call for C[C@]12CCC(=O)C=C1CC[C@@H]1[C@@H]2[C@@H](O)C[C@@]2(C)[C@H]1CC[C@]2(O)C(=O)COC(=O)CCC(=O)O here
output: inactive
